System: VchCAST RNA-guided transposition machinery (E. coli BL21(DE3) host, lacZ target)
protocol-description: relative integration efficiency (T-RL orientation) vs wild-type transposon end (log2 (normalized fold change)); transposon end mutated: left end; higher = more efficient transposition
measure: relative integration efficiency (log2)

INSERT INTO results (sequence_text, measure, value) VALUES
  ('AATGTTGTTGATGCAACCATAAGTTGATATTTTATAATTATTTATAATCAGCAACTTAACCACAAAACAACCATAAAATGATAATTAACAAAAGTTGGTATTCAACTATAAAATGTGAATCGAGTATTTCAGCAAAACTACTGCAGTAAGAA', 'relative integration efficiency (log2)', -2.57),
  ('AATGTTGTTGATGCAACCATAAAGTGATATTTAATAATTATTTATAATCAGCAACTTAACCACAAAACAACCATATATTGATATCTCACCCCCACCAACGCCTGGTCGCGGGGGTGTCCGATCTGATTTCAGCAAAACTACTGCAGTAAGAA', 'relative integration efficiency (log2)', -2.66),
  ('AATGTTGTTGATGCAACCATAAAGTGCGCGGGCATAATTATTTATAATCAGCAACTTAACCACAAAACAACCATATATTGCGCGAGAACAAAACAACCATAAGTTGCGCGGGGTGTGAATCGAGTATTTCAGCAAAACTACTGCAGTAAGAA', 'relative integration efficiency (log2)', -7.87),
  ('AATGTTGTTGATGCAACCATAAAGTGATATTTAATAATTATTTATAATCAGACCAGGCCAACACCCCACCAACGCGCGGTCGCGAGACACCCCACCAACGCCTGGTCGCGGGGGTGTCCGATCTGATTTCAGCAAAACTACTGCAGTAAGAA', 'relative integration efficiency (log2)', -6.56),
  ('AATGTTGTTGATGCAACCATATTCACATATTTAATAATTATTTATAATCAGCAACTTAACCACAAAACAACCATAATAACATATCTCACAAAACAACCATATCAACATATTTTTGTGAATCGAGTATTTCAGCAAAACTACTGCAGTAAGAA', 'relative integration efficiency (log2)', -7.41),
  ('AATGTTGTTGATGCAACCATAAAGTGATATTTAATAATTATTTATAATCAGCAACTTAACCCACCCCACCAACGCGCGGTCGCGAGACACCCCACCAACGCCTGGTCGCGGGGGTGTCCGATCTGATTTCAGCAAAACTACTGCAGTAAGAA', 'relative integration efficiency (log2)', -6.3),
  ('AATGTTGTTGATGCAACCATAAAGTGATATTTAATAATTATTTATAATCCTACCAGGCCAACACCCCACCAACGCGCGGTCGCGAGACACCCCACCAACGCCTGGTCGCGGGGGTGTCCGATCTGATTTCAGCAAAACTACTGCAGTAAGAA', 'relative integration efficiency (log2)', -6.45),
  ('AATGTTGTTCAACCATAAAGTGATATTTAATAATTATTTATAATCAGCAACTTAACCACAAAACAACCATATATTGATATCTCACAAAACAACCATAAGTTGATATTTTTGTGAATCGAGTATTTCAGCAAAACTACTGCAGTAAGAAAGTT', 'relative integration efficiency (log2)', -7.77),
  ('AATGTTGTTGATGCAACCATAAAGTGATATTTAATAATTATTTATAATCAGCAACTTAACCACAAAACAACCATATATTGATATCTCACAAAACAACCATCCTGGTCGCGGGGGTGTCCGATCTGATTTCAGCAAAACTACTGCAGTAAGAA', 'relative integration efficiency (log2)', -1.99);
